ASSAYED_SYSTEM: SFRP-1 (Homo sapiens, UniProt Q8N474)
Sequence (Q8N474 32-314): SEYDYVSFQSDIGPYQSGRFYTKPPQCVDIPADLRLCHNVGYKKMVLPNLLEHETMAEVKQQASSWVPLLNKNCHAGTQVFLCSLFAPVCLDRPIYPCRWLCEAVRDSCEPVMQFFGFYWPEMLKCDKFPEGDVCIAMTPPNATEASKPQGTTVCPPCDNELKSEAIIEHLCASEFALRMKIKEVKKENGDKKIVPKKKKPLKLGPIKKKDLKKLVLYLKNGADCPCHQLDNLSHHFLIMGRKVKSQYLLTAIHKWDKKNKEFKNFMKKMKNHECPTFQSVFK
MEASUREMENT_DESCRIPTION: Cell-based assay for in vitro measurement of SFRP-1/SARP2 antagonist activity (U2OS cells co-transfected with 16x TCF-tk-Luciferase reporter, Wnt and hSFRP-1)
MEASUREMENT_PARAMETERS: U2OS, read-out: Fold Induction with SFRP-1, U2OS cells, single dose 10 μM, luciferase reporter, fold induction over SFRP-1 control
# fold induction at 10 µM per entry

[[record]]
compound = "COc1ccc(C(=O)N(C)CCNS(=O)(=O)c2cc(S(=O)(=O)c3ccccc3)ccc2C(F)(F)F)cc1"
observed_result = 3.4


Now consider the entry below.
Ask: Would you kindly share the measured fold induction at 10 µM for `O=S(=O)(N[C@@H]1CCNC1)c1cc(S(=O)(=O)c2ccccc2)ccc1C(F)(F)F` ?
Result: 3.5

* * *

# fold induction at 15 µM per entry
ASSAYED_SYSTEM: UniProtKB Q8N474
MEASUREMENT_DESCRIPTION: Cell-based assay for in vitro measurement of SFRP-1/SARP2 antagonist activity (U2OS cells co-transfected with 16x TCF-tk-Luciferase reporter, Wnt and hSFRP-1)
MEASUREMENT_PARAMETERS: U2OS, read-out: Fold Induction with SFRP-1, Conc 15 μM; with SFRP-1; fold induction over SFRP-1 control, single dose

[[record]]
structure_string = "CCOc1ccc(CCNS(=O)(=O)c2cc(S(=O)(=O)c3ccccc3)ccc2OC)cc1OC"
observed_result = 1.4

[[record]]
structure_string = "COc1ccc(S(=O)(=O)c2ccc(C)c(S(=O)(=O)NCCCn3ccnc3)c2)cc1"
observed_result = 1.8

[[record]]
structure_string = "Cc1ccc(S(=O)(=O)c2ccc(C(C)(C)C)cc2)cc1S(=O)(=O)NC1CCOCC1"
observed_result = 1.8


Now consider the entry below.
Ask: Value wanted: fold induction at 15 µM (UniProtKB Q8N474) of entry `CCc1ccc(S(=O)(=O)c2ccccc2)cc1S(=O)(=O)NCCc1ccccc1OC`
Result: 3.2

* * *

# fold induction at 10 µM per entry
ASSAYED_SYSTEM: UniProt:Q8N474
MEASUREMENT_DESCRIPTION: Cell-based assay for in vitro measurement of SFRP-1/SARP2 antagonist activity (U2OS cells co-transfected with 16x TCF-tk-Luciferase reporter, Wnt and hSFRP-1);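 also: U2OS cells co-transfected with a TCF-tk luciferase reporter, a Wnt vector, hSFRP-1 or empty vector and CMV-βgal, luciferase luminescence read in cell lysates alongside βgal activity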
MEASUREMENT_PARAMETERS: U2OS, read-out: Fold Induction with SFRP-1, U2OS cells, single dose 10 μM, luciferase reporter, fold induction over SFRP-1 control
Form: value (number only, do not type unit).

Would you please look over these solved cases?
[[record]]
molecule = "CC(C)(C)OC(=O)N1CCCC1CCNS(=O)(=O)c1cc(S(=O)(=O)c2ccccc2)ccc1C(F)(F)F (stereo not drawn)"
measured_quantity = "fold induction at 10 µM"
observed_result = 1.1

[[record]]
molecule = "O=S(=O)(NCCc1cccnc1)c1cc(S(=O)(=O)c2cccc(Cl)c2)ccc1C(F)(F)F"
measured_quantity = "fold induction at 10 µM"
observed_result = 3.8

[[record]]
molecule = "CN(CCNS(=O)(=O)c1cc(S(=O)(=O)c2ccccc2)ccc1C(F)(F)F)C(=O)CCC(=O)O"
measured_quantity = "fold induction at 10 µM"
observed_result = 2.7

[[record]]
molecule = "CN(CCNS(=O)(=O)c1cc(S(=O)(=O)c2ccccc2)ccc1C(F)(F)F)S(=O)(=O)c1cccc(C(=O)O)c1"
measured_quantity = "fold induction at 10 µM"
observed_result = 2.7

[[record]]
molecule = "N[C@H]1CC[C@H](NS(=O)(=O)c2cc(S(=O)(=O)c3ccccc3)ccc2C(F)(F)F)CC1"
measured_quantity = "fold induction at 10 µM"
observed_result = 3.7

[[record]]
molecule = "CC(C)(C)c1ccc(NC(=O)N2CCC(NS(=O)(=O)c3cc(S(=O)(=O)c4ccccc4)ccc3C(F)(F)F)CC2)cc1"
measured_quantity = "fold induction at 10 µM"
observed_result = 3.5


Ask: Value wanted: fold induction at 10 µM (UniProt:Q8N474) of entry O=S(=O)(NC1Cc2ccc(Br)cc2C1)c1cc(S(=O)(=O)c2ccccc2)ccc1C(F)(F)F (stereo not drawn)
Result: 10.4

Ask: Now try `O=S(=O)(NC1CCNCC1)c1cc(S(=O)(=O)c2ccccc2NCCO)ccc1C(F)(F)F` .
Result: 3.5

Ask: Now try `CC(C)c1ccc(S(=O)(=O)c2ccc(F)cc2)cc1S(=O)(=O)NC1CCN(C(=S)Nc2cccc(C(=O)O)c2)CC1` .
Result: 1.7

Ask: Now try `O=S(=O)(NCC1CCNCC1)c1cc(S(=O)(=O)c2ccccc2)ccc1C(F)(F)F` .
Result: 4.2

Ask: Now try `O=C(O)c1cccc(S(=O)(=O)N2CCC(CNS(=O)(=O)c3cc(S(=O)(=O)c4ccccc4)ccc3C(F)(F)F)CC2)c1` .
Result: 3.5

Ask: Now try CC(CO)NS(=O)(=O)c1cc(S(=O)(=O)c2ccccc2)ccc1Cl (stereo not drawn) .
Result: 2

Ask: Now try Cc1cc(C)c(S(=O)(=O)c2ccccc2)cc1S(=O)(=O)NCC(O)c1ccccn1 (stereo not drawn) .
Result: 1.7

Ask: Now try O=S(=O)(NCCC1CCCN1)c1cc(S(=O)(=O)c2ccccc2)ccc1C(F)(F)F (stereo not drawn) .
Result: 3.1

Ask: Now try `COc1cccc(S(=O)(=O)c2ccc(C(F)(F)F)c(S(=O)(=O)NCCO)c2)c1` .
Result: 2.9
